Hello, the source for this data is patent US20260216164A1, in case you need it.

# subject-of-test: Helios (IKZF2) (Homo sapiens, UniProt Q96SW2+Q9UKS7)
# Sequence (Q9UKS7 whole entry): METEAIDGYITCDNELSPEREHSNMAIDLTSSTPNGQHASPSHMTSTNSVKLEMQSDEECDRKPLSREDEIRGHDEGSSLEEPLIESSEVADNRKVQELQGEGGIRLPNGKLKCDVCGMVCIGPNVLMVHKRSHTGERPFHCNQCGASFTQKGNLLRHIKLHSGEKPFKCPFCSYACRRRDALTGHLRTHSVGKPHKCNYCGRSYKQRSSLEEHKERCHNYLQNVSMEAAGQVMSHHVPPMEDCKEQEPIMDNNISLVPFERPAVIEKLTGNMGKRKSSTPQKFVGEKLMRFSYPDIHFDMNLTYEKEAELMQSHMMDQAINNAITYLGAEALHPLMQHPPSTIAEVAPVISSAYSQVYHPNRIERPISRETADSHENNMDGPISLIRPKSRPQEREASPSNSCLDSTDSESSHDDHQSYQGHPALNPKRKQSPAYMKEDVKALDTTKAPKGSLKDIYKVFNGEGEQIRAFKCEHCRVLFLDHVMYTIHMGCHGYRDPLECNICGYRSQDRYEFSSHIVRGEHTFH
# Sequence (Q96SW2 whole entry): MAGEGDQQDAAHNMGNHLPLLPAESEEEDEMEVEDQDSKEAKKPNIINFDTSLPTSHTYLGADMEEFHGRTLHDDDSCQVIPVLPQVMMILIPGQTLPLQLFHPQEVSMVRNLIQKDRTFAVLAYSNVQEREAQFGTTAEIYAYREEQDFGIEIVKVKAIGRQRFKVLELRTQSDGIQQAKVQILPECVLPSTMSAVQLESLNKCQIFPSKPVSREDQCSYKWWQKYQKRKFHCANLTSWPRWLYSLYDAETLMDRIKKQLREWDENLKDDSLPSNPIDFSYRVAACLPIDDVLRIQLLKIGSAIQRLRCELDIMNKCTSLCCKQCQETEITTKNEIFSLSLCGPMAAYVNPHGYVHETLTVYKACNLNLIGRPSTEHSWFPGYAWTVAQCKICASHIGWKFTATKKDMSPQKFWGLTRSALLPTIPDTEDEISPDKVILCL
# Sequence (Q16531 whole entry partner): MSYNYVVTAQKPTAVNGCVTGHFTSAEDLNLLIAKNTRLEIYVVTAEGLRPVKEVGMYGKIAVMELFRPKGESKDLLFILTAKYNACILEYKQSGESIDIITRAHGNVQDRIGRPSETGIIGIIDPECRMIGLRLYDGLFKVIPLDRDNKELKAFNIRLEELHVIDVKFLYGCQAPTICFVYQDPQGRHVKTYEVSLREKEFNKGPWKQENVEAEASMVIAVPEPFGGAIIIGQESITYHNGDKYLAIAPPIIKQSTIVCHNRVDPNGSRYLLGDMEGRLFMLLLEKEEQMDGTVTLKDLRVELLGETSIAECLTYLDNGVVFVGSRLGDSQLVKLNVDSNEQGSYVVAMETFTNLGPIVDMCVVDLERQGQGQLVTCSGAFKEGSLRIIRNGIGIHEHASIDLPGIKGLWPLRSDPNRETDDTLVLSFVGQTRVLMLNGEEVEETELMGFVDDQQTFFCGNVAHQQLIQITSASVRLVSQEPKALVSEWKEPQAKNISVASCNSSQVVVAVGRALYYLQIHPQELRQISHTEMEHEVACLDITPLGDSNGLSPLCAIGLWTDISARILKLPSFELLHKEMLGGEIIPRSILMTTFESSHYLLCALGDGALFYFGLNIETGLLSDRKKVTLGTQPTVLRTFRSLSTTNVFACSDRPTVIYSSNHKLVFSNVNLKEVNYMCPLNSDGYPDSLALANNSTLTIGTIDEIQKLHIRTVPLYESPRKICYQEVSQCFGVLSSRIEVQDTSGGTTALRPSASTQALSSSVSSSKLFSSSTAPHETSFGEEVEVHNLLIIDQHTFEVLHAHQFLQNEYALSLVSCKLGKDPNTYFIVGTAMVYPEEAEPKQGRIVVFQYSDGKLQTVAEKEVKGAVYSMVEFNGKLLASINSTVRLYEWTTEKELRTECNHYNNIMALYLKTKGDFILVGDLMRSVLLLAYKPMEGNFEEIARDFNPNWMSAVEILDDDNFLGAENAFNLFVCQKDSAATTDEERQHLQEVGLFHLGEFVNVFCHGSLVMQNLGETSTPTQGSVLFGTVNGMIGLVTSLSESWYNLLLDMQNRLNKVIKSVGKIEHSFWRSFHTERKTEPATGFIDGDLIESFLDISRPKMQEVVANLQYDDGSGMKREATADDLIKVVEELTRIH
# measurement-notes: Screening of Helios protein degraders using Nano-Glo HiBiT cell line (HiBiT-IKZF2)
# Type: cell-based
# condition-label: compound 1 μM, 6 hours, HiBiT-Helios knock-in Jurkat cells; read-out: HiBiT-IKZF2 Residual amount of Helios (%) 1 μM
metric-name: remaining activity at 1 µM
Answer format: number, then unit.

**Q:** Which measured remaining activity at 1 µM value corresponds to Cc1c(C(=O)N2CCC(c3ccc4c(c3)CN(C3CCC(=O)NC3=O)C4=O)CC2)[nH]c2cc(NS(C)(=O)=O)ccc12 (centres unmarked) ?
**A:** 73.2%

**Q:** CN1CCN(Cc2c(C(=O)N3CCC(c4ccc5c(c4)CN(C4CCC(=O)NC4=O)C5=O)CC3)[nH]c3cc(Cl)ccc23)CC1 (centres unmarked) , same question.
**A:** 31.8%

**Q:** Repeat for the following compound: O=C1CCC(N2Cc3cc(C4CCN(C(=O)c5cc6ccc(O)cc6[nH]5)CC4)ccc3C2=O)C(=O)N1 (centres unmarked)
**A:** 53.6%

**Q:** Also, Cc1c(C(=O)N2CCC(c3ccc4c(c3)CN(C3CCC(=O)NC3=O)C4=O)CC2)[nH]c2ccc(Br)cc12 (centres unmarked) please.
**A:** 71.3%

**Q:** Moving on to CCNC(=O)Nc1ccc2c(C)c(C(=O)N3CCC(c4ccc5c(c4)CN(C4CCC(=O)NC4=O)C5=O)CC3)[nH]c2c1 (centres unmarked)
**A:** 29.6%

**Q:** What do you get for O=C1CCC(N2Cc3cc(C4CCN(C(=O)c5cc6cccc(F)c6[nH]5)CC4)ccc3C2=O)C(=O)N1 (centres unmarked) ?
**A:** 80.5%

**Q:** Consider next the compound O=C1CCC(N2Cc3cc(C4CCN(C(=O)c5cc6cc(F)ccc6[nH]5)CC4)ccc3C2=O)C(=O)N1 (centres unmarked) in the same way.
**A:** 95%

**Q:** Next entry: O=C1CCC(N2Cc3cc(C=C4CCN(C(=O)c5cc6ccccc6[nH]5)CC4)ccc3C2=O)C(=O)N1 (centres unmarked)
**A:** 93.7%

**Q:** And what about the compound O=Cc1c(C(=O)N2CCC(c3ccc4c(c3)CN(C3CCC(=O)NC3=O)C4=O)CC2)[nH]c2ccccc12 (centres unmarked) ?
**A:** 76.6%

**Q:** Repeat with Cc1cccc2cc(C(=O)N3CCC(c4ccc5c(c4)CN(C4CCC(=O)NC4=O)C5=O)CC3)[nH]c12 (centres unmarked)
**A:** 78.5%

**Q:** Then what about the compound O=C1CCC(N2Cc3cc(C4CCN(C(=O)c5cc6ccccc6[nH]5)CC4)ccc3C2=O)C(=O)N1 (centres unmarked) ?
**A:** 94.5%

**Q:** # iterate: Cc1c(C(=O)N2CCC(=Cc3ccc4c(c3)CN(C3CCC(=O)NC3=O)C4=O)CC2)[nH]c2ccccc12 (centres unmarked)
**A:** 96.4%

**Q:** Could you do the same for O=C1CCC(N2Cc3cc(C4CCN(C(=O)c5[nH]c6ccccc6c5Br)CC4)ccc3C2=O)C(=O)N1 (centres unmarked) , please?
**A:** 50.9%

**Q:** # iterate: Cc1c(C(=O)N2CCC(C#Cc3ccc4c(c3)CN(C3CCC(=O)NC3=O)C4=O)CC2)[nH]c2cc(Cl)ccc12 (centres unmarked)
**A:** 22.7%

* * *

Would you kindly list remaining activity at 1 µM for each of these molecules?
# subject-of-test: Helios (IKZF2) (Homo sapiens, UniProt Q96SW2+Q9UKS7)
# measurement-notes: Screening of Helios protein degraders using Nano-Glo HiBiT cell line (HiBiT-IKZF2)
# Assay type: cell-based
# condition-label: compound 1 μM, 6 hours, HiBiT-Helios knock-in Jurkat cells; read-out: HiBiT-IKZF2 Residual amount of Helios (%) 1 μM
Report as: number unit

**Q:** Could you tell me which remaining activity at 1 µM is on file for COc1cc2c(C)c(C(=O)N3CCC(c4ccc5c(c4F)CN(C4CCC(=O)NC4=O)C5=O)CC3)[nH]c2cc1Cl (stereo not shown) [Compound 108] ?
**A:** 8.3%

**Q:** What would you report for COc1cc2c(C)c(C(=O)N3CCC(c4ccc5c(c4)CN(C4CCC(=O)NC4=O)C5=O)CC3)[nH]c2cc1[N+](=O)[O-] (stereo not shown) [Compound 97] ?
**A:** 14.6%

**Q:** Cool, now Cc1c(C(=O)N2CCC(c3cc4c(cc3F)C(=O)N(C3CCC(=O)NC3=O)C4)CC2)[nH]c2cc(Cl)c(F)cc12 (stereo not shown) [Compound 112]
**A:** 23%

**Q:** What do we get for O=C1CCC(N2Cc3cc(C4CCN(C(=O)c5cc6ccc(Cl)c(Cl)c6[nH]5)CC4)ccc3C2=O)C(=O)N1 (stereo not shown) [Compound 2] ?
**A:** 78.3%

**Q:** Okay, and Cc1c(C(=O)N2CCC(c3ccc4c(c3)CN(C3CCC(=O)NC3=O)C4=O)CC2)[nH]c2ccc(Cl)cc12 (stereo not shown) [Compound 38] ?
**A:** 80%

**Q:** Could you do the same for Cc1c(C(=O)N2CCC(c3ccc4c(c3)CN(C3CCC(=O)NC3=O)C4=O)CC2)[nH]c2cc(Cl)ccc12 (stereo not shown) [Compound 39] , please?
**A:** 6.6%

**Q:** Next: Cc1ccc2cc(C(=O)N3CCC(c4ccc5c(c4)CN(C4CCC(=O)NC4=O)C5=O)CC3)[nH]c2c1 (stereo not shown) [Compound 15]
**A:** 66.9%

* * *

# subject-of-test: IKZF2 (Helios) (Homo sapiens, UniProt Q96SW2+Q9UKS7)
# Sequence (Q9UKS7 whole entry): as the sequence (Q9UKS7 whole entry) above
# Sequence (Q96SW2 whole entry): as the sequence (Q96SW2 whole entry) above
# Sequence (Q16531 whole entry partner): as the sequence (Q16531 whole entry partner) above
# measurement-notes: Screening of DC50 (nM) and Dmax (%) using WB-IKZF2 cell line (Western blot)
# Assay type: cell-based
# Design: endogenous in cells
# condition-label: 6 hours, class symbols, read-out: WB-IKZF2 DC 50
Could you please report measured DC50 for the items listed next?

**Q:** Any idea what DC50 was measured for Cc1c(C(=O)N2CCC(c3ccc4c(c3F)CN(C3CCC(=O)NC3=O)C4=O)CC2)[nH]c2cc(Cl)c(C#N)cc12 (stereo not shown) ?
**A:** 10 to 100 nM

**Q:** What do you have for O=C1CCC(N2Cc3cc(C4CCN(C(=O)c5[nH]c6cc(Cl)ccc6c5CN5CCOCC5)CC4)ccc3C2=O)C(=O)N1 (stereo not shown) ?
**A:** 10 to 100 nM

**Q:** For Cc1c(C(=O)N2CCC(c3ccc4c(c3F)CN(C3CCC(=O)NC3=O)C4=O)CC2)[nH]c2cc(N3CCOCC3)ccc12 (stereo not shown) then?
**A:** 10 to 100 nM

**Q:** What would you report for Cc1c(C(=O)N2CCC(c3ccc4c(c3)CN(C3CCC(=O)NC3=O)C4=O)CC2)[nH]c2c(F)c(Cl)ccc12 (stereo not shown) ?
**A:** 10 to 100 nM

**Q:** Record: Cc1c(C(=O)N2CCC(c3ccc4c(c3)CN(C3CCC(=O)NC3=O)C4=O)CC2)[nH]c2cc(Br)ccc12 (stereo not shown)
**A:** 100 to 1000 nM

**Q:** Next compound: Cc1c(C(=O)N2C3CCC2CC(c2ccc4c(c2)CN(C2CCC(=O)NC2=O)C4=O)C3)[nH]c2cc(Cl)ccc12 (stereo not shown)
**A:** 10 to 100 nM

**Q:** How about Cc1c(C(=O)N2CCC(c3ccc4c(c3)CN(C3CCC(=O)NC3=O)C4=O)CC2)[nH]c2cc(Cl)c(F)cc12 (stereo not shown) ?
**A:** < 10 nM

* * *

# subject-of-test: Helios (IKZF2) (Homo sapiens, UniProt Q96SW2+Q9UKS7)
# measurement-notes: Screening of Helios protein degraders using Nano-Glo HiBiT cell line (HiBiT-IKZF2)
# Format: cell-based
# condition-label: compound 1 μM, 6 hours, HiBiT-Helios knock-in Jurkat cells; read-out: HiBiT-IKZF2 Residual amount of Helios (%) 1 μM
# Experimental: To observe intracellular degradation of Helios, the Nano-Glo HiBiT detection system (Promega) was employed. […] After 6 hours, the Nano-Glo HiBiT detection reagent was added to each well in an equal volume to the cell culture medium and incubated at room temperature for 10 minutes. Following incubation, the HiBiT luminescence signal was measured using a microplate reader (Perkin Elmer).
Returns: string. Value is Met if measured remaining activity at 1 µM is below 30%, and Not met if it is greater than or equal to it.

**Q:** Regarding O=C1CCC(N2Cc3cc(C4CCN(C(=O)c5cc6c(Cl)cc(Cl)cc6[nH]5)CC4)ccc3C2=O)C(=O)N1 (stereo not shown) [Compound 6] , kindly confirm whether its remaining activity at 1 µM is beneath 30%.
**A:** Not met

**Q:** Subsequent entry: Cc1c(C(=O)N2CCC(c3ccc4c(c3)CN(C3CCC(=O)NC3=O)C4=O)CC2)[nH]c2cc(O)ccc12 (stereo not shown) [Compound 47]
**A:** Met

**Q:** Next compound up: Cc1c(C(=O)N2CCC(c3ccc4c(c3)CN(C3CCC(=O)NC3=O)C4=O)CC2)[nH]c2cc(Cl)c(F)cc12 (stereo not shown) [Compound 102]
**A:** Met

**Q:** For COc1cc2c(C)c(C(=O)N3CCC(c4ccc5c(c4)CN(C4CCC(=O)NC4=O)C5=O)CC3)[nH]c2cc1Cl (stereo not shown) [Compound 71] then?
**A:** Met

**Q:** // repeat for COc1cccc2cc(C(=O)N3CCC(c4ccc5c(c4)CN(C4CCC(=O)NC4=O)C5=O)CC3)[nH]c12 (stereo not shown) [Compound 12] and report
**A:** Not met

**Q:** Would you kindly repeat that for COc1ccc2cc(C(=O)N3CCC(c4ccc5c(c4)CN(C4CCC(=O)NC4=O)C5=O)CC3)[nH]c2c1 (stereo not shown) [Compound 5] ?
**A:** Not met

**Q:** Now consider Cc1c(C(=O)N2CCC(c3ccc4c(c3)CN(C3CCC(=O)NC3=O)C4=O)CC2)[nH]c2ccccc12 (stereo not shown) [Compound 21] and answer again.
**A:** Not met
